- system: rat GPR14 (U-II receptor) (Rattus norvegicus)
- Sequence (P49684 1-386): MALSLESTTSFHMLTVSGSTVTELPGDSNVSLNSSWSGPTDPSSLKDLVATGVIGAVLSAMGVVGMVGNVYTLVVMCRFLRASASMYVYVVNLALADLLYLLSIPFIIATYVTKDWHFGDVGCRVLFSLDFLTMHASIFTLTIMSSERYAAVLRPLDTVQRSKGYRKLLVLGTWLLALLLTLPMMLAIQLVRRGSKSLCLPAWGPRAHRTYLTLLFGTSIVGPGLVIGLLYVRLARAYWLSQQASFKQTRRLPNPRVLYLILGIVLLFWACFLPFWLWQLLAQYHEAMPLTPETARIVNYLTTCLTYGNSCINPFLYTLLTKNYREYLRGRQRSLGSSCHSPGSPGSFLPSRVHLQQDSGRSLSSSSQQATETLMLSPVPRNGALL
- assayComment: Calcium flux assay (FLIPR)
- experimentalSetup: Inhibition of acetyl-cyclic[Cys-Phe-Trp-Lys-(2-Nal)-Cys]-NH2 (1 nM) induced Ca2+ mobilization (FLIPR) in CHO cells transfected with rat UII receptor; 5 min incubation
# label = true if IC50 < 3 µM else false

> print(dat)
                                    compound  classlabel
 1  O=C(NCCN1CCCCC1)c1cc(Cl)ccc1C1CCN(CCN2C(=O)COc3ccccc32)CC1 [Cpd 71]        true
 2  CC(C)(C)OC(=O)N1CCC(CNC(=O)c2cc(Cl)ccc2C2CCN(CCN3C(=O)COc4ccccc43)CC2)CC1 [Cpd 58]        true
 3  O=C(NCCCCCNC(=O)c1cc(Cl)ccc1C1CCN(CCN2C(=O)COc3ccccc32)CC1)Nc1ccccc1 [Cpd 81]        true
 4  O=C(NCC1CCN(C(=O)NCc2ccccc2)CC1)c1cc(Cl)ccc1C1CCN(CCN2C(=O)COc3ccccc32)CC1 [Cpd 67]        true
 5  CC(C)(C)OC(=O)NCCCCCNC(=O)c1cc(Cl)ccc1C1=CC2CCC(C1)N2CCN1C(=O)COc2ccccc21 (centres unmarked) [Cpd 95]        true
 6  O=C(NCCc1ccccn1)c1ccccc1C1CCN(CCN2C(=O)COc3ccccc32)CC1 [Cpd 42]       false
 7  O=C(NCCc1ccncc1)c1ccccc1C1CCN(CCN2C(=O)COc3ccccc32)CC1 [Cpd 45]       false
 8  COc1ccc(C2CCN(CCN3C(=O)COc4ccccc43)CC2)cc1 [Cpd 87]       false
 9  CC(C)NC(=O)NCCCCCNC(=O)c1cc(Cl)ccc1C1CCN(CCN2C(=O)COc3ccccc32)CC1 [Cpd 80]        true
10  O=C1COc2ccccc2N1CCN1CCC(c2ccccc2)CC1 [Cpd 86]       false
11  O=C(NCCc1cccc(F)c1F)c1ccccc1C1CCN(CCN2C(=O)COc3ccccc32)CC1 [Cpd 23]       false
12  COc1ccc(CCNC(=O)c2ccccc2C2CCN(CCN3C(=O)COc4ccccc43)CC2)cc1OC [Cpd 10]       false
13  CCCNC(=O)c1ccccc1C1CCN(CCN2C(=O)COc3ccccc32)CC1 [Cpd 29]       false
14  Cc1ccc(C2CCN(CCN3C(=O)COc4ccccc43)CC2)cc1 [Cpd 90]       false
15  O=C(NCC1CCN(C(=O)c2ccccc2)CC1)c1cc(Cl)ccc1C1CCN(CCN2C(=O)COc3ccccc32)CC1 [Cpd 64]        true
16  CC(CCc1ccccc1)NC(=O)c1ccccc1C1CCN(CCN2C(=O)COc3ccccc32)CC1 (centres unmarked) [Cpd 25]       false

* * *

- system: rat GPR14 (U-II receptor) (Rattus norvegicus, UniProt P49684)
- Sequence (P49684 1-386): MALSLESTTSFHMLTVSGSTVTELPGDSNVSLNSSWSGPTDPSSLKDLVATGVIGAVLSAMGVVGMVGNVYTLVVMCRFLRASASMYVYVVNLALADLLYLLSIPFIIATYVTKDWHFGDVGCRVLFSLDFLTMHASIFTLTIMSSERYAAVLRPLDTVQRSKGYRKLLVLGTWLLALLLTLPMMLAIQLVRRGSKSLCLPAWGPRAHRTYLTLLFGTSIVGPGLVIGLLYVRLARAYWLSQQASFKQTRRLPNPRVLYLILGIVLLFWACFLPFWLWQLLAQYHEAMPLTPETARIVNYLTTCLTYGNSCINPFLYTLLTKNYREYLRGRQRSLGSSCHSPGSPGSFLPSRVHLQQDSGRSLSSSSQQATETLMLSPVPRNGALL
- assayComment: Calcium flux assay (FLIPR)
- experimentalSetup: Inhibition of acetyl-cyclic[Cys-Phe-Trp-Lys-(2-Nal)-Cys]-NH2 (1 nM) induced Ca2+ mobilization (FLIPR) in CHO cells transfected with rat UII receptor; 5 min incubation
parameter: IC50 (nM)

> print(dat)
                                   compound  result
1  CC(C)(C)OC(=O)NCCCCCNC(=O)c1cc(Cl)ccc1C1CCN(CCN2C(=O)COc3ccccc32)CC1 [Cpd 70]      32
2  CC(C)(C)OC(=O)N1CCN(CCNC(=O)c2cc(Cl)ccc2C2=CC3CCC(C2)N3CCN2C(=O)COc3ccccc32)CC1 (stereo not shown) [Cpd 94]     290
3  CC(=O)NCCNC(=O)c1ccccc1C1CCN(CCN2C(=O)COc3ccccc32)CC1 [Cpd 49]   38000
4  O=C(NCCCCCNC(=O)c1cc(Cl)ccc1C1CCN(CCN2C(=O)COc3ccccc32)CC1)NCCc1ccccc1 [Cpd 82]     170

* * *

- system: rat GPR14 (U-II receptor) (Rattus norvegicus)
- assayComment: Calcium flux assay (FLIPR)
- experimentalSetup: Inhibition of acetyl-cyclic[Cys-Phe-Trp-Lys-(2-Nal)-Cys]-NH2 (1 nM) induced Ca2+ mobilization (FLIPR) in CHO cells transfected with rat UII receptor; 5 min incubation
- From the text: To derive these cells, the complete coding sequence of rat […] was amplified by nested PCR from rat heart marathon-Ready cDNA. […] The PCR products were cloned into pcDNA3 (Invitrogen) digested with EcoR I and Xba I. Clones containing rat U-II receptor were verified by complete sequencing of the U-II receptor insert to ensure a lack of PCR-introduced errors. The constructed vector was transfected into CHO cells by using lipofectamine (GIBCO BRL). […]
parameter: IC50 (µM)

> print(dat)
                                    compound  measurementunits  result
 1  CC1C=C(c2ccc(Cl)cc2C(=O)NCCCCCNC(=O)OC(C)(C)C)CC(C)N1CCN1C(=O)COc2ccccc21 (stereo not shown)                µM     7.6
 2  CC(C)(C)OC(=O)NCCCCNC(=O)c1ccccc1C1CCN(CCN2C(=O)COc3ccccc32)CC1                µM       3
 3  O=C(NCCNC(=O)c1ccccc1C1CCN(CCN2C(=O)COc3ccccc32)CC1)Nc1ccc2ccccc2c1                µM       7
 4  CN(CCc1ccccc1)C(=O)c1ccccc1C1CCN(CCN2C(=O)COc3ccccc32)CC1                µM      15
 5  CN(Cc1ccccc1)C(=O)c1ccccc1C1CCN(CCN2C(=O)COc3ccccc32)CC1                µM      11
 6  CC(C)(C)OC(=O)N1CCN(CCNC(=O)c2ccccc2C2CC3CCC(C2)N3CCN2C(=O)COc3ccccc32)CC1 (stereo not shown) [Cpd 96]                µM     3.5
 7  CC(C)(C)OC(=O)NCCCCCCNC(=O)c1cc(Cl)ccc1C1CCN(CCN2C(=O)COc3ccccc32)CC1                µM   0.045
 8  O=C1COc2ccccc2N1CCN1CCC(C(=O)NCCCc2ccccc2)(c2ccccc2)CC1                µM     9.1
 9   Cc1ccccc1C1CCN(CCN2C(=O)COc3ccccc32)CC1                µM      21
10  O=C(NCc1cccs1)c1ccccc1C1CCN(CCN2C(=O)COc3ccccc32)CC1                µM       6
11  O=C1COc2ccccc2N1CCN1C2CCC1CC(c1ccccc1)C2 (stereo not shown)                µM      19
12   O=C1COc2ccccc2N1CCN1CCC(c2cccc(F)c2)CC1                µM      28
13  CC(C)(C)OC(=O)NCCCCCNC(=O)c1ccccc1C1CC2CCC(C1)N2CCN1C(=O)COc2ccccc21 (stereo not shown)                µM     5.4

* * *

- system: rat GPR14 (U-II receptor) (Rattus norvegicus, UniProt P49684)
- Sequence (P49684 1-386): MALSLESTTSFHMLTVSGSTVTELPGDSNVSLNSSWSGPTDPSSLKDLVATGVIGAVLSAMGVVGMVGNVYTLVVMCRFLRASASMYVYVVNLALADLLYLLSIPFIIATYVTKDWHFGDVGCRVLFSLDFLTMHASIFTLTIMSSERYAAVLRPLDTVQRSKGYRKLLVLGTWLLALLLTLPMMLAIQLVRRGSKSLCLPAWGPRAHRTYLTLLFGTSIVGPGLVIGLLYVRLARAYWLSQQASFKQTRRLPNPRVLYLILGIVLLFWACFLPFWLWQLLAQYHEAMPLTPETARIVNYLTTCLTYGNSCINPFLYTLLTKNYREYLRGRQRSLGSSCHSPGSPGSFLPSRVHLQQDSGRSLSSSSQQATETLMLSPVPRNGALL
- assayComment: Calcium flux assay (FLIPR)
- experimentalSetup: Inhibition of acetyl-cyclic[Cys-Phe-Trp-Lys-(2-Nal)-Cys]-NH2 (1 nM) induced Ca2+ mobilization (FLIPR) in CHO cells transfected with rat UII receptor; 5 min incubation
pIC50: −log10 of the molar value.
# reported pIC50; entries follow
parameter: pIC50

> print(dat)
                                    compound                                    system  parameter  result
 1  COc1cccc(CCNC(=O)c2ccccc2C2CCN(CCN3C(=O)COc4ccccc43)CC2)c1  rat GPR14 (U-II receptor) (Rattus norvegicus, UniProt P49684)      pIC50    5.00
 2  O=C(NCCc1ccccc1Cl)c1ccccc1C1CCN(CCN2C(=O)COc3ccccc32)CC1  rat GPR14 (U-II receptor) (Rattus norvegicus, UniProt P49684)      pIC50    4.85
 3  O=C(NCCc1ccc(C(F)(F)F)cc1)c1ccccc1C1CCN(CCN2C(=O)COc3ccccc32)CC1  rat GPR14 (U-II receptor) (Rattus norvegicus, UniProt P49684)      pIC50    5.40
 4  O=C1COc2ccccc2N1CCN1CCC(C(=O)NCCCCc2ccccc2)(c2ccccc2)CC1  rat GPR14 (U-II receptor) (Rattus norvegicus, UniProt P49684)      pIC50    5.06
 5  O=C(NCCc1ccc(Cl)cc1Cl)c1ccccc1C1CCN(CCN2C(=O)COc3ccccc32)CC1  rat GPR14 (U-II receptor) (Rattus norvegicus, UniProt P49684)      pIC50    4.72
 6  O=C(NC1CCc2ccccc21)c1ccccc1C1CCN(CCN2C(=O)COc3ccccc32)CC1 (centres unmarked)  rat GPR14 (U-II receptor) (Rattus norvegicus, UniProt P49684)      pIC50    4.37
 7  COc1ccccc1CCNC(=O)c1ccccc1C1CCN(CCN2C(=O)COc3ccccc32)CC1  rat GPR14 (U-II receptor) (Rattus norvegicus, UniProt P49684)      pIC50    5.10
 8  O=C(NCCc1ccc(F)c(F)c1)c1ccccc1C1CCN(CCN2C(=O)COc3ccccc32)CC1  rat GPR14 (U-II receptor) (Rattus norvegicus, UniProt P49684)      pIC50    5.22
 9  CC(CN1C(=O)COc2ccccc21)N1CCC(c2ccc(Cl)cc2C(=O)NCC2CCN(S(=O)(=O)Cc3ccccc3)CC2)CC1 (centres unmarked)  rat GPR14 (U-II receptor) (Rattus norvegicus, UniProt P49684)      pIC50    5.70
10  COc1ccc(CCNC(=O)c2ccccc2C2CCN(CCN3C(=O)COc4ccccc43)CC2)cc1  rat GPR14 (U-II receptor) (Rattus norvegicus, UniProt P49684)      pIC50    5.40
11     O=C1COc2ccccc2N1CCN1CCC(c2ccccc2F)CC1  rat GPR14 (U-II receptor) (Rattus norvegicus, UniProt P49684)      pIC50    4.64
12  O=C(NCCCc1ccccc1)c1ccccc1C1CCN(CCN2C(=O)COc3ccccc32)CC1  rat GPR14 (U-II receptor) (Rattus norvegicus, UniProt P49684)      pIC50    5.38
13  O=C(NCCc1ccc2ccccc2c1)c1ccccc1C1CCN(CCN2C(=O)COc3ccccc32)CC1  rat GPR14 (U-II receptor) (Rattus norvegicus, UniProt P49684)      pIC50    5.70
14  CC(C)(C)OC(=O)NCCCCCNC(=O)c1ccccc1[C@@H]1C[C@H]2CC[C@@H](C1)N2CCN1C(=O)COc2ccccc21  rat GPR14 (U-II receptor) (Rattus norvegicus, UniProt P49684)      pIC50    5.80
15  O=C(NCCc1ccccc1)c1ccccc1C1CCN(CCN2C(=O)COc3ccccc32)CC1  rat GPR14 (U-II receptor) (Rattus norvegicus, UniProt P49684)      pIC50    5.12
16  O=C(NCCc1c[nH]c2ccccc12)c1cc(Cl)ccc1C1CCN(CCN2C(=O)COc3ccccc32)CC1  rat GPR14 (U-II receptor) (Rattus norvegicus, UniProt P49684)      pIC50    6.05
17  O=C(NCc1cccnc1)c1ccccc1C1CCN(CCN2C(=O)COc3ccccc32)CC1  rat GPR14 (U-II receptor) (Rattus norvegicus, UniProt P49684)      pIC50    4.74
